Data origin: a melting point compilation (Tetko et al.)

metric_name: melting point

Ask | Please supply the value of reported melting point for the item Cc1ccc(C(=O)O)cc1NC(=O)c1ccco1
Reply | 230 to 232 °C

Ask | Please supply the value of reported melting point for the item O=C(O)COc1cccc(Oc2ccccn2)c1
Reply | 124 to 126 °C

Ask | Please supply the value of reported melting point for the item CCn1cc(C(=O)O)cn1
Reply | 144 to 146 °C

Ask | Please supply the value of reported melting point for the item Cc1ccc(C(=O)CCC(=O)O)s1
Reply | 99 to 101 °C

Ask | Please supply the value of reported melting point for the item Nc1ccc2nc(N3CCOCC3)oc2c1
Reply | 176 to 178 °C

Ask | Please supply the value of reported melting point for the item COc1ccc(C(=O)/C=C2\NC(=O)CS2)cc1
Reply | 210 to 212 °C

Ask | Please supply the value of reported melting point for the item COc1cncc(C=CC(=O)O)c1
Reply | 172 to 174 °C

Ask | Please supply the value of reported melting point for the item COc1ccc(C(C)(C)C(=O)O)cc1OC
Reply | 84 to 86 °C

Ask | Please supply the value of reported melting point for the item COc1ccc(NS(=O)(=O)c2ccc(O)c(N)c2)cc1
Reply | 213 to 215 °C

Ask | Please supply the value of reported melting point for the item CCCCc1ccc(N2C(=O)C=CC2=O)cc1
Reply | 40 to 44 °C

Ask | Please supply the value of reported melting point for the item CSC(=CC(=O)c1ccccc1)SC
Reply | 92 to 94 °C

Ask | Please supply the value of reported melting point for the item NC(=O)c1cc(OC2CCNCC2)ccn1
Reply | 129 to 131 °C

Ask | Please supply the value of reported melting point for the item O=C(O)Cn1cnc2ccccc2c1=O
Reply | 241 to 243 °C

Ask | Please supply the value of reported melting point for the item O=C(O)c1ccc(Oc2cccc(F)c2)cc1
Reply | 146 to 148 °C

Ask | Please supply the value of reported melting point for the item Cc1ccc(N)cc1NC(=O)c1ccccc1I
Reply | 190 to 192 °C

====

For each entry below, report its melting point value.

Ask | Please supply the value of reported melting point for the item OCCOc1ccc(Br)cn1
Reply | 51 to 53 °C

Ask | Please supply the value of reported melting point for the item NS(=O)(=O)CC1CCCN1 (configuration not stated)
Reply | 72 to 74 °C

Ask | Please supply the value of reported melting point for the item O=C1NCCN2CCCCC12 (configuration not stated)
Reply | 134 to 136 °C

Ask | Please supply the value of reported melting point for the item CCCSc1nsc(N)n1
Reply | 54 to 56 °C

Ask | Please supply the value of reported melting point for the item COc1ccc(CCl)cc1C#N
Reply | 99 to 101 °C

Ask | Please supply the value of reported melting point for the item OCc1nnc(Cl)s1
Reply | 51 to 53 °C

Ask | Please supply the value of reported melting point for the item O=C(O)c1cc(-c2ccccc2)ns1
Reply | 183 to 185 °C

Ask | Please supply the value of reported melting point for the item Cc1nc2c([nH]1)CCC(C(=O)O)C2 (configuration not stated)
Reply | 229 to 231 °C

Ask | Please supply the value of reported melting point for the item Cc1cc(S(C)(=O)=O)cc(C(=O)O)c1C
Reply | 199 to 201 °C

Ask | Please supply the value of reported melting point for the item Cc1cnc2c(c1)NCCN2
Reply | 127 to 129 °C

Ask | Please supply the value of reported melting point for the item Cn1cc(-c2ccc(Cl)nn2)cn1
Reply | 188 to 190 °C

Ask | Please supply the value of reported melting point for the item NC(=NO)c1ccc(Br)cc1
Reply | 153 to 155 °C

Ask | Please supply the value of reported melting point for the item O=C(O)Cc1csc2nc(-c3ccccc3)cn12
Reply | 220 to 222 °C

Ask | Please supply the value of reported melting point for the item Cc1ccc(N)cc1-n1nnnc1C
Reply | 139 to 141 °C

Ask | Please supply the value of reported melting point for the item CC(C)(C)NCCC(N)=O
Reply | 95 to 97 °C

Ask | Please supply the value of reported melting point for the item Cc1noc(C2CC2)c1NC(=O)OC(C)(C)C
Reply | 108 to 110 °C

Ask | Please supply the value of reported melting point for the item CCCc1ncc(C(=O)O)s1
Reply | 135 to 137 °C

Ask | Please supply the value of reported melting point for the item COc1ccccc1Cn1cnc2cc(C)c(C)cc21
Reply | 126 to 128 °C

Ask | Please supply the value of reported melting point for the item Ic1ccc(OCc2ccccn2)cc1
Reply | 74 to 76 °C

Ask | Please supply the value of reported melting point for the item NC(=O)N1CC=C(c2c[nH]c3ccccc23)CC1
Reply | 199 to 201 °C

Ask | Please supply the value of reported melting point for the item Nc1ccc(Oc2ccc(C(F)(F)F)cn2)c(F)c1
Reply | 90 to 92 °C

Ask | Please supply the value of reported melting point for the item COc1cccc(-c2nn(-c3ccccc3)cc2C(=O)O)c1
Reply | 156 to 158 °C

Ask | Please supply the value of reported melting point for the item COC(=O)c1ccc(Oc2ccc([N+](=O)[O-])cc2)nn1
Reply | 194 to 196 °C

Ask | Please supply the value of reported melting point for the item N#CC(c1ccc(Br)cc1)N1CCNCC1 (configuration not stated)
Reply | 83 to 85 °C

Ask | Please supply the value of reported melting point for the item O=c1[nH]c(S)nc2sccc12
Reply | 315 to 317 °C

Ask | Please supply the value of reported melting point for the item c1cc2c(cn1)NCCCN2
Reply | 121 to 123 °C

Ask | Please supply the value of reported melting point for the item Nc1ccc(NC(=O)CCN2C(=O)CNC2=O)cc1
Reply | 234 to 236 °C

Ask | Please supply the value of reported melting point for the item COCCOc1cccc(CNC(=O)CCl)c1
Reply | 90 to 92 °C

Ask | Please supply the value of reported melting point for the item CN(C)S(=O)(=O)c1ccc(Cl)nc1
Reply | 117 to 119 °C

Ask | Please supply the value of reported melting point for the item Nc1cc2c(cc1[N+](=O)[O-])OCC(=O)N2
Reply | 323 to 325 °C

Ask | Please supply the value of reported melting point for the item COc1ccc(C=O)c([N+](=O)[O-])c1
Reply | 91 to 93 °C

Ask | Please supply the value of reported melting point for the item COc1ccccc1NC(=O)c1ccc(NC(=O)CCl)cc1
Reply | 103 to 106 °C

Ask | Please supply the value of reported melting point for the item CC(=O)N(C)c1ccccc1N
Reply | 146 to 148 °C

Ask | Please supply the value of reported melting point for the item CN(C)c1ncccc1O
Reply | 173 to 175 °C

Ask | Please supply the value of reported melting point for the item Nc1cc(CSCCO)ccn1
Reply | 90 to 92 °C

Ask | Please supply the value of reported melting point for the item O=c1[nH]c(=O)c2cc(S(=O)(=O)Cl)ccc2[nH]1
Reply | 272 to 274 °C

Ask | Please supply the value of reported melting point for the item CC(Cl)C(=O)Nc1ccc2c(c1)OCO2 (configuration not stated)
Reply | 168 to 170 °C

Ask | Please supply the value of reported melting point for the item CN(C)c1cncc(Cl)n1
Reply | 44 to 46 °C

Ask | Please supply the value of reported melting point for the item COc1cc(OC)cc(N2CC(C(=O)O)CC2=O)c1 (configuration not stated)
Reply | 125 to 127 °C

Ask | Please supply the value of reported melting point for the item N#Cc1ccc(CC(N)=O)cc1
Reply | 191 to 193 °C

Ask | Please supply the value of reported melting point for the item COC(=O)c1ccc(Oc2cccnc2)cc1
Reply | 82 to 84 °C

Ask | Please supply the value of reported melting point for the item Cc1ccc(NC(N)=S)cc1F
Reply | 148 to 150 °C

====

For each entry below, report its melting point value.

Ask | Please supply the value of reported melting point for the item Cn1cnc2cc(Br)ccc2c1=O
Reply | 156 to 158 °C

Ask | Please supply the value of reported melting point for the item O=C(O)Cn1c(-c2cscn2)nc2ccccc21
Reply | 256 to 258 °C

Ask | Please supply the value of reported melting point for the item Nc1ncccc1OCc1cccc(Cl)c1
Reply | 84 to 86 °C

Ask | Please supply the value of reported melting point for the item CCOC(=O)N1CCN(S(=O)(=O)Cl)CC1
Reply | 67 to 69 °C

Ask | Please supply the value of reported melting point for the item Cc1cc(C)c2nc(NN)cc(C)c2c1
Reply | 113 to 115 °C

Ask | Please supply the value of reported melting point for the item NC1CCC(=O)NC1=O (configuration not stated)
Reply | 214 to 216 °C

Ask | Please supply the value of reported melting point for the item CCN(CC)S(=O)(=O)c1ccc2c(c1)CCCN2
Reply | 131 to 133 °C
